- procedure.summary: rat liver microsomal clearance
- condition.parameters: microsomes
measured.endpoint: microsomal CLint at 10 μM

Input line: Fill in the blank: the reported microsomal CLint at 10 μM of O=C(NC[C@H](O)CO)[C@@H]1C[C@H](c2ccccc2)CCN1 (mixture of isomers) [Compound 12] is ____.
Output line: < 9.6 µL/min/mg
